- target_or_system: T1, CD27 expressed on the cell surface (HT1080_CD27 cells) (human, UniProt P26842 20-260)
- T1 construct: whole, on cells; also called K562_CD27
- T1 sequence (looked up): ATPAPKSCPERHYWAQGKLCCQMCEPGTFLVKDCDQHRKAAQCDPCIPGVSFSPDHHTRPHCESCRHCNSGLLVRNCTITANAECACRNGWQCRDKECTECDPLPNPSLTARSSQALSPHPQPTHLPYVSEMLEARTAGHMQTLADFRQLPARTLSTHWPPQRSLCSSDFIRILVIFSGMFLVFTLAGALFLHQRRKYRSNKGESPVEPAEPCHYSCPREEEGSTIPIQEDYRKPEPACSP
- experiment_summary: cellular binding assay, HT1080_CD27 cells; further: test concentration or dose not given here
Cellular binding assay [RFU] listing for selected binders.
quantity_measured: Cellular binding assay [RFU] (RFU)

binder="P018.S.03.A.D06 (antibody, V domains shown, V regions on human Ig constant parts; also called AB27_51) VH: QSLEESGGRLVTPGTPLTLTCTASGFSLSSYWMSWVRQAPGKGLEWIGYIYAGSGSAYYASWVKGRFTISKTSTTVDLKISSPTTEDTATYFCGRGNYDGYINVYDLWGPGTLVTVSS VL: DVVMTQTPSSVEAAVGGTVTIKCQASQSIGSYLAWYQKKPGQPPKLLIYAAANLAAGVPSRFKGSGSGTDFTLTINDLESADAATYYCQNNNGAYGSAYVGAFGGGTEVVVK" reported_measurement=360
binder="P018.S.01.A.B05 (antibody, V domains shown, V regions on human Ig constant parts; also called AB27_6) VH: QEQLEESGGRLVTPGGTLTLTCTASGFSLSSYDMSWVRQAPGKGLEWIGYIWSDGNTDYATWAAGRFTASRASTTVDLKMTSLTTEDTATYFCARGYTGFFLWGPGTLVTVSS VL: DVVMTQTPSSVSAAVGGTVTIKCQASQSIGSSYLSWYQQKPGQPPKLLIYKTSTLASGVPSRFKGSGSGTEFTLTISDLESDDAATYYCQCTYYGSSWRVAFGGGTEVVVK" reported_measurement=376
binder="P018.S.02.A.G03 (antibody, V domains shown, V regions on human Ig constant parts; also called AB27_38) VH: QSVEESGGRLVTPGTPLTLTCTVSGFSLSSYVMSWVRQAPGKGLEWIGYIDYGGTAYYASWAKGRFTISKTSTTVELKITSPTIEDTATYFCARGGYGGYILVTGLWGPGTLVTVSS VL: DIVMTQTPASVSEPVGGTVTIKCQASQTIISYLSWYQQKPGQPPKLLIYGASTLASGVPSRFKGSGSVTEYTLTISDLESADAATYYCQTYYGGGPFGNGFGGGTEVVVK" reported_measurement=357
